The reported measurements were obtained from ChEMBL document CHEMBL1201862.

MEASURED ON: Fatty acid synthase (Homo sapiens, UniProt P49327)
Sequence (P49327 whole entry): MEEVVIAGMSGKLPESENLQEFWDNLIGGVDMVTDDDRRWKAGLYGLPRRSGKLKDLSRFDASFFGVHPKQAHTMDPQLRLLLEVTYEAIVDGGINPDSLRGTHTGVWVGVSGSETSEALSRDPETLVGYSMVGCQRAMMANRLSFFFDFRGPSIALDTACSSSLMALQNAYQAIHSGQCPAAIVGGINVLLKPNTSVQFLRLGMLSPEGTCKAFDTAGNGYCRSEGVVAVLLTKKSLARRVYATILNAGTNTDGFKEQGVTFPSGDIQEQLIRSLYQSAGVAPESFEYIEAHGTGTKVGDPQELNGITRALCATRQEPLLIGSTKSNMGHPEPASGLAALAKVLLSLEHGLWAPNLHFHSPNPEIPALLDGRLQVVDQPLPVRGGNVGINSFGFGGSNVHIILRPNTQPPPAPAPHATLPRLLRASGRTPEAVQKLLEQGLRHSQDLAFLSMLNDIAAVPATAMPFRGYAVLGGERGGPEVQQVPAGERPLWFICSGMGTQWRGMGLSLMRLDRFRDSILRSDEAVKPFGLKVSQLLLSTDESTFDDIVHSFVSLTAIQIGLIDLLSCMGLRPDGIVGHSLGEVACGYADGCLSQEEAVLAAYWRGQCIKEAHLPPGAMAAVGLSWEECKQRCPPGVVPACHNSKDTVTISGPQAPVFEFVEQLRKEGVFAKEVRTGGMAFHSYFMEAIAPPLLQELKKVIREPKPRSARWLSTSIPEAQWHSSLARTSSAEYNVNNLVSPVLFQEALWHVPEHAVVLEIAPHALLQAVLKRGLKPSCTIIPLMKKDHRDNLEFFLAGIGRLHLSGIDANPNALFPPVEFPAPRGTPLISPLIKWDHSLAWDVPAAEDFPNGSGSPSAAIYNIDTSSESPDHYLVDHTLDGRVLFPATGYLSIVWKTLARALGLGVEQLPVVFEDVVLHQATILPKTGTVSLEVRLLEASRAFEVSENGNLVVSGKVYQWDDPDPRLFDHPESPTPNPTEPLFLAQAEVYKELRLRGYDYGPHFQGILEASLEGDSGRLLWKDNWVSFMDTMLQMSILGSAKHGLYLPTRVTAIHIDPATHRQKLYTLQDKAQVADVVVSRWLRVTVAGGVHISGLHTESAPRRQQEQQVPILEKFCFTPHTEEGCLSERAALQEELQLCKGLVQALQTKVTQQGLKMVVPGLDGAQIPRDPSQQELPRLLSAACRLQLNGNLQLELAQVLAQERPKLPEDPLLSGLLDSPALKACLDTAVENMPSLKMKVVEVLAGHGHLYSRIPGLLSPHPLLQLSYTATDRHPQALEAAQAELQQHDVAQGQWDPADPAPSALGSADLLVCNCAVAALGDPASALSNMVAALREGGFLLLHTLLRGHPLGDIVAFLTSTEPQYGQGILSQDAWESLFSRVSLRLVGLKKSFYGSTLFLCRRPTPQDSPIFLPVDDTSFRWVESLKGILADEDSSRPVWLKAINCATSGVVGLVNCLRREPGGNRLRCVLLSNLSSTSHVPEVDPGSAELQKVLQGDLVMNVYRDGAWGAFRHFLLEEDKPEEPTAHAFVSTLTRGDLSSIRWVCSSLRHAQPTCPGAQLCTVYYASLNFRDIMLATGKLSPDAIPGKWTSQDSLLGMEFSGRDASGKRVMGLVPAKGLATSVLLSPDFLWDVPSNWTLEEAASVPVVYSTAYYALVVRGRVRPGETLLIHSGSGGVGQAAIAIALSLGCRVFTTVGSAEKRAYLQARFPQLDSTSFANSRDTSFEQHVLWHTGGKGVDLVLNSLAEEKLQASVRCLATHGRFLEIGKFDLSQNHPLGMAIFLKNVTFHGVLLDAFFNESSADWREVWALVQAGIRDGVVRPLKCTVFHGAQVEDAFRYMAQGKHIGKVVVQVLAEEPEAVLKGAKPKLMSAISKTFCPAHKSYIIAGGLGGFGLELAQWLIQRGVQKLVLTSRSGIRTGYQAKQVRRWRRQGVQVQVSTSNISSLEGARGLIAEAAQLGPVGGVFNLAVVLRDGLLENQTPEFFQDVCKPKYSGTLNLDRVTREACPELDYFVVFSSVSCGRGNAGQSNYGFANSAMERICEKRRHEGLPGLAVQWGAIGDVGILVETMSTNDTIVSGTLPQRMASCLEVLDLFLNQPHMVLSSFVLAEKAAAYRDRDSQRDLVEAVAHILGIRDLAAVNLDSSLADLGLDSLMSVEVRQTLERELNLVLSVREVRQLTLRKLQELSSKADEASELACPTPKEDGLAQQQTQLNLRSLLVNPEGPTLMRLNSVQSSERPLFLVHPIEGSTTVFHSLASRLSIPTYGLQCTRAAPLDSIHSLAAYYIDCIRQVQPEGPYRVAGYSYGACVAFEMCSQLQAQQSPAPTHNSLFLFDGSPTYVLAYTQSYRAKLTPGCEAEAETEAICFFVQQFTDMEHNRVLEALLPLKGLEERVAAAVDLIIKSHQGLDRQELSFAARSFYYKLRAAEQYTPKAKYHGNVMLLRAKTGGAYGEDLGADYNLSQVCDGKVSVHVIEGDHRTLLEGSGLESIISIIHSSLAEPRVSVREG
ASSAY REMARKS: inhibition of human FAS-TE enzyme activity – biochemical, kinetic fluorescence intensity, dose response (AID 624326);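 also: rate of fluorescence rise from hydrolysis of a fluorogenic O-methyl fluorescein ester substrate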
Type: functional
The source made the active and inactive calls. Rule as the data show it: active = IC50 of 20 µM or less and inactive = more.
QUANTITY KIND: IC50

smiles_data=CCOC(=O)C1=CC[C@H]2c3c(c4ccccc4n3C)C(=O)C1N2C(=O)OC(C)(C)C val="11.9 µM (active)"
smiles_data=Cn1c(=O)c2nc(COc3ccc(C(C)(C)C)cc3)[nH]c2n(C)c1=O val="6.26 µM (active)"
smiles_data=O=C(OCc1ccc([N+](=O)[O-])cc1)c1cc([N+](=O)[O-])ccc1N1CCOCC1 val="2.73 µM (active)"
smiles_data=Cc1cc(C(=O)N/N=C/c2cc([N+](=O)[O-])ccc2O)c2ccccc2n1 val="2.75 µM (active)"
smiles_data=CNC(=O)/C(=C\C=C\c1ccccc1)NC(=O)c1ccc([N+](=O)[O-])cc1 val="0.809 µM (active)"
smiles_data=COc1ccc(-c2cc([N+](=O)[O-])ccc2OCC(=O)N(C)CC(=O)Nc2ccc(C)cc2)cc1 val="7.78 µM (active)"
